Experimental target: human plasma kallikrein (Homo sapiens (Human))
Sequence (P03952 391-638): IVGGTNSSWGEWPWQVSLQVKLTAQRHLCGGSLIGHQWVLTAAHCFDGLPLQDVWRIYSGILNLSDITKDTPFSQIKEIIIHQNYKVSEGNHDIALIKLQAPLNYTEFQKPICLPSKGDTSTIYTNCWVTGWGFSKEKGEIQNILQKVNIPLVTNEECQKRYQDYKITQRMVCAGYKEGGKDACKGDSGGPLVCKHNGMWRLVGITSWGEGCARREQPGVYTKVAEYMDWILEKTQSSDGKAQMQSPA
Sequence (P03952 20-390 partner): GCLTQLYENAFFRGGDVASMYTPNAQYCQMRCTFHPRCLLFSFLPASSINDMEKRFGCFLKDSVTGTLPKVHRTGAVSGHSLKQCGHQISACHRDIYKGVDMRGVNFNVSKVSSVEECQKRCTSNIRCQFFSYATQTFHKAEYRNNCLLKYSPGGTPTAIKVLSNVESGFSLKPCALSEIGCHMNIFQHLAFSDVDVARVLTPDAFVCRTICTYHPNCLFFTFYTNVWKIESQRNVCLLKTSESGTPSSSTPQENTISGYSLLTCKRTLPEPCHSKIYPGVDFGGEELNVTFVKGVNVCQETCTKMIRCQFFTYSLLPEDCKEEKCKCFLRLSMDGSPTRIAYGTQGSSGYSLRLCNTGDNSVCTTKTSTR
Assay: Determination of the plasma kallikrein activity (fluorogenic peptide substrate H-Pro-Phe-Arg-AMC)
Conditions used: Table B; plasma kallikrein inhibition, 30 min at 22° C., fluorescence
pIC50: −log10 of the molar value.
Reported metric: pIC50

molecule="COc1cn(C(Cc2cocn2)C(=O)Nc2ccc(C(N)=O)nc2)c(=O)cc1-c1cc(Cl)ccc1C#N (stereo not shown)" measured=7.28
molecule="CNC(=O)c1ccc(NC(=O)C(Cc2ccn(C)n2)n2cc(C3CC3)c(-c3cc(Cl)ccc3C#N)cc2=O)cn1 (racemic)" measured=7.10
molecule="COc1cn(C(Cc2cccnc2)C(=O)Nc2ccc(C(N)=O)nc2)c(=O)cc1-c1cc(Cl)ccc1C#N (stereo not shown)" measured=8.22
molecule="N#Cc1ccc(Cl)cc1-c1cc(=O)n(C(Cc2ccccn2)C(=O)Nc2ccc(C(N)=O)nc2)cc1OC(F)F (stereo not shown)" measured=6.31
molecule="CNC(=O)c1ccc(NC(=O)C(Cc2ccn(C)n2)n2cc(OC)c(-c3cc(F)ccc3C#N)cc2=O)cn1 (racemic)" measured=6.89
molecule="CNC(=O)c1ccc(NC(=O)C(C[C@@H]2CCCCO2)n2cc(Cl)c(-c3cc(Cl)ccc3C#N)cc2=O)cn1 (stereo partly shown)" measured=6.92
molecule="COc1cn(C(Cc2ccccn2)C(=O)Nc2ccc(C(N)=O)nc2)c(=O)cc1-c1cc(Cl)ccc1F (stereo not shown)" measured=6.60
molecule="CCC(C(=O)Nc1ccc(C(=O)NC)nc1)n1cc(OC)c(-c2cc(Cl)ccc2C#N)cc1=O (stereo not shown)" measured=7.80

[I] COc1cn(C(Cc2cc(C)no2)C(=O)Nc2ccc(C(N)=O)nc2)c(=O)cc1-c1cc(Cl)ccc1F (stereo not shown)
[II] N#Cc1ccc(Cl)cc1-c1cc(=O)n(C(Cc2cnco2)C(=O)Nc2ccc(C(N)=O)nc2)cc1OC(F)F (stereo not shown)
[III] CNC(=O)c1ccc(NC(=O)C(CCOC)n2cc(Cl)c(-c3cc(Cl)ccc3C#N)cc2=O)cn1 (stereo not shown)
Incoming: Please put the entries in order of rising pIC50. # list labels per requested ordering
Outgoing: II, I, III

* * *

pIC50: −log10 of the molar value.
Target or system human factor XIa (Homo sapiens (Human)): recorded pIC50 listed per item.
Reported metric: pIC50

Worked set:
compound="N#Cc1ccc(Cl)cc1-c1cc(=O)n(C(Cc2cnco2)C(=O)Nc2ccc(C(N)=O)nc2)cc1OC(F)F (stereo not shown)" measured=6.68
compound="COCCC(C(=O)Nc1ccc(C(N)=O)nc1)n1cc(Cl)c(-c2cc(Cl)ccc2C#N)cc1=O (stereo not shown)" measured=7.54
compound="CNC(=O)c1ccc(NC(=O)C(Cc2ccn(C)n2)n2cc(OC)c(-c3cc(F)ccc3C#N)cc2=O)cn1 (racemic)" measured=6.80
compound="COc1cn(C(Cc2ccccn2)C(=O)Nc2ccc(C(N)=O)nc2)c(=O)cc1-c1cc(Cl)ccc1F (stereo not shown)" measured=6.66
compound="CNC(=O)c1ccc(NC(=O)C(CCOC)n2cc(Cl)c(-c3cc(Cl)ccc3C#N)cc2=O)cn1 (stereo not shown)" measured=7.64

[P] N#Cc1ccc(Cl)cc1-c1cc(=O)n(C(Cc2cnco2)C(=O)Nc2ccc(C(N)=O)nc2)cc1Cl (stereo not shown)
[Q] CCC(C(=O)Nc1ccc(C(=O)NC)nc1)n1cc(OC)c(-c2cc(Cl)ccc2C#N)cc1=O (stereo not shown)
Incoming: Hi! Which is lower in terms of pIC50, the first one P or the second one Q ? Lab log: write the label of the selected item as the result.
Outgoing: P
(P: 7.49, Q: 7.70)

* * *

Experimental target: human plasma kallikrein (Homo sapiens (Human))
Assay: Determination of the plasma kallikrein activity (fluorogenic peptide substrate H-Pro-Phe-Arg-AMC)
Conditions used: Table B; plasma kallikrein inhibition, 30 min at 22° C., fluorescence
pIC50: −log10 of the molar value.
Reported metric: pIC50

Some solved cases for reference:
compound="CCC(C(=O)Nc1ccc(C(N)=O)nc1)n1cc(OC)c(-c2cc(Cl)ccc2C#N)cc1=O (centres unmarked) [Example 1]" reported_metric=pIC50 measured=7.66
compound="N#Cc1ccc(Cl)cc1-c1cc(=O)n(C(Cc2cnco2)C(=O)Nc2ccc(C(N)=O)nc2)cc1Cl (centres unmarked) [Example 16]" reported_metric=pIC50 measured=7.05
compound="COCCC(C(=O)Nc1ccc(C(N)=O)nc1)n1cc(Cl)c(-c2cc(Cl)ccc2C#N)cc1=O (centres unmarked) [Example 3]" reported_metric=pIC50 measured=7.00

[1] N#Cc1ccc(Cl)cc1-c1cc(=O)n(C(Cc2cocn2)C(=O)Nc2ccc(C(N)=O)nc2)cc1Cl (centres unmarked) [Example 10]
[2] N#Cc1ccc(Cl)cc1-c1cc(=O)n(C(C[C@@H]2CCCCO2)C(=O)Nc2ccc(C(N)=O)nc2)cc1Cl (some centres unmarked) [Example 4]
Incoming: Identify the entry with the smaller pIC50: 1 or 2 . Kindly give the label for the entry you pick.
Outgoing: 1
(1: 6.33, 2: 6.85)

Hey, just so you know, these numbers are from patent US10167280B2.
